Reported conditions: in ethanol, 288.15 K
Recorded metric: solubility (mole fraction)

Prompt: What value of solubility (mole fraction) has been reported for the following compound? "Nc1ncnc2c1ncn2[C@@H]1O[C@H](COP(=O)(O)O)[C@@H](O)[C@H]1O"
Completion: 5.3e-06

----------
Reported conditions: in water, 318.2 K
Recorded metric: solubility (mole fraction)
Please give the numeric answer without any surrounding text.

Prompt: # query: solubility (mole fraction) of entry "Nc1ncnc2c1ncn2[C@@H]1O[C@H](COP(=O)(O)O)[C@@H](O)[C@H]1O"
Completion: 0.000768

----------
Reported conditions: in ethanol, 306.15 K
Recorded metric: solubility (mole fraction)

Prompt: Name the recorded solubility (mole fraction) for "Nc1ncnc2c1ncn2[C@@H]1O[C@H](COP(=O)(O)O)[C@@H](O)[C@H]1O" .
Completion: 7.73e-06

----------
Reported conditions: in water, 294.2 K
Recorded metric: solubility (mole fraction)

Prompt: // lookup solubility (mole fraction) for "Nc1ncnc2c1ncn2[C@@H]1O[C@H](COP(=O)(O)O)[C@@H](O)[C@H]1O"
Completion: 0.000336

----------
Reported conditions: in water, 288.2 K
Recorded metric: solubility (mole fraction)
I'd appreciate a reply containing only the number, no unit.

Prompt: Quick one: solubility (mole fraction) for "Nc1ncnc2c1ncn2[C@@H]1O[C@H](COP(=O)(O)O)[C@@H](O)[C@H]1O" ?
Completion: 0.000257

----------
Reported conditions: in water, 324.2 K
Recorded metric: solubility (mole fraction)

Prompt: Would you mind telling me what solubility (mole fraction) value was observed for "Nc1ncnc2c1ncn2[C@@H]1O[C@H](COP(=O)(O)O)[C@@H](O)[C@H]1O" ?
Completion: 0.000934

----------
Reported conditions: in methanol, 300.15 K
Recorded metric: solubility (mole fraction)
Please respond with just the number, no unit label.

Prompt: Query (compound): "Nc1ncnc2c1ncn2[C@@H]1O[C@H](COP(=O)(O)O)[C@@H](O)[C@H]1O" ; field requested: solubility (mole fraction)
Completion: 1.04e-05

----------
Reported conditions: in acetic acid, 324.15 K
Recorded metric: solubility (mole fraction)
Form field (numeric): enter value without unit.

Prompt: Name the reported solubility (mole fraction) value associated with the compound "Nc1ncnc2c1ncn2[C@@H]1O[C@H](COP(=O)(O)O)[C@@H](O)[C@H]1O"
Completion: 0.00075

----------
Reported conditions: in acetic acid, 300.15 K
Recorded metric: solubility (mole fraction)
Give the figure only, with no unit attached.

Prompt: Please report the recorded solubility (mole fraction) for "Nc1ncnc2c1ncn2[C@@H]1O[C@H](COP(=O)(O)O)[C@@H](O)[C@H]1O" .
Completion: 0.000186

----------
Reported conditions: in methanol, 306.15 K
Recorded metric: solubility (mole fraction)
Lab note: jot down the number only; don't add units.

Prompt: Look at this compound and give its reported solubility (mole fraction). "Nc1ncnc2c1ncn2[C@@H]1O[C@H](COP(=O)(O)O)[C@@H](O)[C@H]1O"
Completion: 1.15e-05

----------
Reported conditions: in ethanol, 294.15 K
Recorded metric: solubility (mole fraction)
// keep it numeric: no unit symbol after the value

Prompt: Need solubility (mole fraction) of "Nc1ncnc2c1ncn2[C@@H]1O[C@H](COP(=O)(O)O)[C@@H](O)[C@H]1O" , thanks.
Completion: 5.61e-06

----------
Reported conditions: in ethanol, 330.15 K
Recorded metric: solubility (mole fraction)
Lab note: record just the number, no unit beside it.

Prompt: Returns the measured solubility (mole fraction) for the input molecule. Input: "Nc1ncnc2c1ncn2[C@@H]1O[C@H](COP(=O)(O)O)[C@@H](O)[C@H]1O"
Completion: 1.54e-05
